# experimentNotes: yeast display, Sf9 membrane polyspecificity reagent, FACS + sequencing; frameworks hold sequencing errors
readoutLabel: polyreactivity (PSR sort gate)

{"sequenceRecord": "QVQLVESGGGLVQAGGSLRLSCAASGTTFPAYAMGWYRQAPGKERELVAVINLSGSTYYADSVKGRFTISRDNAKNTVYLQMNSLKPEDTAVYYCNARQYDYYRYGYWGQGTQVTVSS", "polyreactivity (PSR sort gate)": "low polyreactivity"}
{"sequenceRecord": "QVQLVESGGGLVQAGGSLRISCAASGRTFGRYTMGWYRQAPGKVRELVASISNTARTNYADSVKGRFTISRDNAKNTVYLQMNSLKPEDTAVYYCASGFVRYRGTRDYWGQGTQVTVSS", "polyreactivity (PSR sort gate)": "low polyreactivity"}
{"sequenceRecord": "QVQLVESGGGLVQAGGSLRLSCAASGFTFVRNAMGWYRQAPGKEREFVAAITWTGGSTSYADSVKGRFTISRDNAMITVYLQMNSLKPEDTAVYYCDAVGYGYGFEYWGQGTQVTVSA", "polyreactivity (PSR sort gate)": "high polyreactivity"}
{"sequenceRecord": "QDQLVESGGGLVQAGGSLRLSCAASGFTFNWKDMGWYRQAPGKERELVAAISGGASTYYADSVKGRFTISRDNAKNTVYLQMNSLKPEDTAVYYCAADLDEWGYLFDYWGQGTQVTVSS", "polyreactivity (PSR sort gate)": "low polyreactivity"}
{"sequenceRecord": "QVQLVESGGGLVQPGGSLRLSCAASGIIFGYYAMGWYRQAPGKERVLDAAISWSGGSTYYADSVKGRVTISRDNAKNTVYFQMNSLKPEDTAVYYCAAVVRRKSGNDTWRYNYWGQGTQVTVSS", "polyreactivity (PSR sort gate)": "high polyreactivity"}

// returns reported polyreactivity (PSR sort gate) for input QVQLVESGGGLVQAGGSLRLTCAASGLTFWWYAMGWYRQAPGKERELVAGITGGGSTSYADSVKGRFTISRDNAKNTVYLQMNSLIQEDTAVYYCAASPYNGQRTWYKYFFLGDYWGQGTQVTVSS
high polyreactivity

// returns reported polyreactivity (PSR sort gate) for input QVQLVESGGGLVQAGGSLRLSCAASGSIFSAYVMGWYRQAPGKERELVAAITRSGGSTYYADSVKGRFTISRDNAKHTVYLQMNSLKPEDTAVYYCAAKSIIRPYAPRRDDMDYWGQGTQVTVSS
low polyreactivity

// returns reported polyreactivity (PSR sort gate) for input QVQLVESGGGLVQAGGSLRLSCAASGFIFNRYAMGWYRPAPGNERELVATITRRGGRTYYADSVKGRFTISRDNAKNTVYLQMNSLKPEDTALYYCNADPNVPVETFDYWGQVTQVTVSS
high polyreactivity

// returns reported polyreactivity (PSR sort gate) for input QVQLVESGGGLVQAGGSLRLSCAPSGFTFDPYAMGWYRQAPGKERELVAAIDYSGGTTYYADSVKGRFTISRDNAKNTVYLQMNSLKPEDTAVYYCAAEYTYYHWWGYDYWGQGTQVTVSS
high polyreactivity

// returns reported polyreactivity (PSR sort gate) for input QVQLVVSGGGLVQAGGRLRLSCAASGFTFRRNARGWYRQAPGKVWELVAGITSSGTSTYYADSVKGRFTISRDNAKNTVNLQMNSLKPEDTAVYYCNADTPRTGGYWGQGTQVTVSS
high polyreactivity

// returns reported polyreactivity (PSR sort gate) for input QVQLVESGGGLVQAGGSLRLSCAASGFTFGSYAMGWYRQAPGKERELVAAITWSGGSTYYADSVKGRFTISRDNAKNTVYLQMNSLKPEDTAVYYCNAEIRYYGYDYWGQGTQVTVSS
high polyreactivity

// returns reported polyreactivity (PSR sort gate) for input QDQLVESGGGLVQAGCSLRLSCAASGLIFGWYAMGWYRQAPGKERELVASISRSGGSTYYADSVKGRFTISRDNAKNTVYLQMNSLITEDTAVYYCAALNYVFRLTYGYDYWGQGTQVTVSS
high polyreactivity

====

# experimentNotes: yeast display, Sf9 membrane polyspecificity reagent, FACS + sequencing; frameworks hold sequencing errors
readoutLabel: polyreactivity (PSR sort gate)

Worked examples, 5 sequences total:
{"sequenceRecord": "QLQLVESGGGLVQAGGSLRLSCAASGFTFSYYAKGWYRQAPGKERELVAAISINGGRTYYADSVKGRFTISRDNAKNTVYLQMNSLKPEDTAVYYCNAVSYAYTVRMDYWGQGTQVTVSS", "polyreactivity (PSR sort gate)": "high polyreactivity"}
{"sequenceRecord": "QVQLVESGGGLVQAGGSLRLSCAASGFTFVRYAMGWYRQAPGKEREFVAGITRSGGSTYYADSVKGRFTISRDNAKNTVYLQMNSLKPEDTAVYYCNRAYYSYHDQPYEYWGQGTQVSVSS", "polyreactivity (PSR sort gate)": "high polyreactivity"}
{"sequenceRecord": "QVQLVESGGGLVQAGGSLRLSCAASGLIFYFNGMGLYRQAPGKERELVASISASGDRTYYADSVKGRFTISRDNAKNTVYLQMNSLKQEDTAVYYCATDANTYTKYDYWGQGTQVSVSS", "polyreactivity (PSR sort gate)": "low polyreactivity"}
{"sequenceRecord": "QVQLVESGGGLVQAGGSLRLSCAASGSIFGINAMGWYRQAPGKERELVAGISSRGGSTYYADSVKGRFTISRDNAKNTVYLQMNSLKPEDTAVYYCAKRYGRRYGRLHDYWGQGTQVTVSS", "polyreactivity (PSR sort gate)": "high polyreactivity"}
{"sequenceRecord": "QVQLVDSGGGLVQAGGSLRLSCAASGRTFSANAMGWYRQAPGKERELVAGITSRGGGTYYADSVKGRFTISRDNAKNTVYLQMNSLKTEDTAVYYGAKASRYWSLYYWGQGTQVTVSS", "polyreactivity (PSR sort gate)": "high polyreactivity"}

// returns reported polyreactivity (PSR sort gate) for input QVQLVESGGGLVQAGGSLRLSCAASGSIFTFYAMGWYRQAPGKERELVARITNVGNTNYADSVKGRFTISRDNAKNTVYLQMNSLKPEDTAVYYCAARWYWGWTRGDYWGQGTQVTVSS
high polyreactivity

====

# experimentNotes: yeast display, Sf9 membrane polyspecificity reagent, FACS + sequencing; frameworks hold sequencing errors
readoutLabel: polyreactivity (PSR sort gate)

Worked examples, 4 sequences total:
{"sequenceRecord": "QVQLVESGGGLVQAGGSLRLSCAASGNIFYQYAMGWYRQAPGKDREFVAAISISGTSTYADSVKGRFTISRDNAKNTVYLQMNSLKPEDTAVYWGQGTQVTVSS", "result": "low polyreactivity"}
{"sequenceRecord": "QVQLVESGGGLVQAGGSLRLSCAASGRTFTYYAMGWYIQAPGKEREFVASISLSGGRTYYADSVKGRFTISRDNAKNTVYLQMNSLKPEDTAVYYCNAYYPRVDRYDYWGQGTQVTVSS", "result": "low polyreactivity"}
{"sequenceRecord": "QVQLVESGGGLVQAGGRLRLSCAASGFIHYAMGWYRQAPGNERELVAAIRHSGGSTYYADSVKGRFTISRDNANNTVYIHMNSLKPEDTAVYYCAASRSGVGYRMQYWGQGTQVTVSS", "result": "low polyreactivity"}
{"sequenceRecord": "QVQLVESGGGLVQAGGSLRLSCAASGGTSRSYAMGWYRQAPGKERELVAAISWRGGRTYYADSVKGRFTISRDNAKNTVYLQMNSLKPEDTAVYYCAARQYSQEPYDYWGQGTQVTVSS", "result": "high polyreactivity"}

Now take the following sequence into account.
// returns reported polyreactivity (PSR sort gate) for input QVQLVESGGGLVQAGGSLRLSCAASGSIFFSNTMGWYRQAPGKERELVARITWSGTSTNYADSVKGRFTISRDNAKNTVYLQMNSLKPEDTAVYYCNAGFYTSAGYDYWGQGTQVTVSS
high polyreactivity

====

# experimentNotes: yeast display, Sf9 membrane polyspecificity reagent, FACS + sequencing; frameworks hold sequencing errors
readoutLabel: polyreactivity (PSR sort gate)

Worked examples, 4 sequences total:
{"sequenceRecord": "QVQLVDSGGGLVQAGGSLRLSCAASGLTFIRYAMGWYRQAPGKERELVAAITRGGTRTYYADSVKGRFTISRDNAKNTVYLQMNSLKPEDTAVYYCAALSRYGRFDYWGQGTQVTVSS", "result": "high polyreactivity"}
{"sequenceRecord": "QVQLVESGGGLVQAGGSLRLSCAASGSTFNAYAMGWYRQAPGKERELVADISFSGGTYYADSVKGRFTISRDNAKNTVYLQMNSLKPEDTAVYYCSAESRWRSSAGGYYYWGQGTQVTVSS", "result": "low polyreactivity"}
{"sequenceRecord": "QVQLVESGGGLVQAGGSLRLSCAASGIIFYYYAMGWYRQAPGKERELVAAISWSGDGTYYADSVKGRFTISRDKAKNTVYLQMNSLKPEDTAVYYCAALNDGFTGYDYLDEYTDYGYWGQGTQVTVSS", "result": "low polyreactivity"}
{"sequenceRecord": "QVQLVESGGGLVQAGGSLRLSCAASGFIFYRYAMGWYRPAPGKERELVAAISRSGGTTYYADSVKGRFTISRDNAKNTVYLQMNSLKPEETAVYYCAAVGTVSRTVGYKYWGQGTQVTVSS", "result": "high polyreactivity"}

Now take the following sequence into account.
// returns reported polyreactivity (PSR sort gate) for input QVQLVESGGGLVQAGGSLRLSCAGSGSTLAIYAMGWYRHAPGKERELVAAISGGGSTYADSVKGRFTISRDNAKNTVYLQMISLKPEDTAVYYCNADGWGDRFWSNFRFDYWGQGTQVTVSS
low polyreactivity
